test: Inhibition of Saccharomyces cerevisiae alpha glucosidase
assay_endpoint: IC50 (mM)

(P) C[C@H]1O[C@H](O[C@H]2[C@H](O)[C@@H](O)[C@@H](O[C@H]3[C@H](O)[C@@H](O)C(O)O[C@@H]3CO)O[C@@H]2CO)[C@H](O)[C@@H](O)[C@@H]1N[C@H]1C=C(CO)[C@@H](O)[C@H](O)[C@H]1O (stereo partly drawn)
(Q) C[C@H]1C[C@H](O)[C@H](O)C[C@@H]1O (relative stereo)
(R) C[C@H]1C[C@@H](O)C=CC1=O
(S) Cc1cccc(O)c1C(=O)O[C@H]1[C@H](O)[C@@H](O)[C@@H](C)C[C@@H]1O (relative stereo)
Could you please sort these 4 entries by IC50 from high to low? In plain terms: list the labels in the order you were asked to.
Q, R, S, P

###

test: Inhibition of Saccharomyces cerevisiae alpha glucosidase
pIC50: −log10 of the molar value.
Quick reference: pIC50 of the listed items.

Observe how each entry below is paired with its result.
C[C@H]1C[C@H](O)[C@@H](O)C[C@H]1O (relative stereo) | 2.21
C[C@H]1C[C@H](O)[C@H](O)C[C@H]1O (relative stereo) | < 2.00
C[C@H]1C[C@@H](O)[C@@H](O)C[C@@H]1O (relative stereo) | < 2.00

Shift focus to the following entry.
Look up pIC50: C[C@H]1C[C@H](O)[C@@H]2O[C@@H]2[C@H]1O (relative stereo)
< 2.00
